Entry source: patent US20200247855A1

Exercise: for every item that follows, state its recorded log10 of Kd.
- Assay system: CXCL2
- Experimental details: BLI
Lab note - Kd converted to log10 from values in nM.

Measured log10 of Kd, P1124_IXORI (other) DSKGTSDSQDSTKSIKVDFCETNCTKTDGGWTGCTGDCICVSVGDSIEGRCMDFG : 1.14

log10 of Kd for P1077_IXORI (other) GSKQLIGPQSSTNSIKAEFCDTNCTAGTNGIWNGCSGDCFCTHVGNSTEGRCMKITGFDEYPTSEAEE is 2.42

Looking up P1132_IXORI (other) LSDEDELFSVEYCGTNCTKQDTGSWTTCSGNCTCYHEDGKKVGLCLSTEYTDFTKFPKPTSEEIANARPLPKREKTLN , I see its log10 of Kd listed as 1.27

Lab book: log10 of Kd of P1127_IXORI (other) AGKDDEHFSVDYCGMNCTQQEDGSWTACSGRNGECRCYHESGKRSGLCLSTTYIDFSEYGNLSDSDIAAASPRLSMKESH noted as 1.44

Consider P1128_IXORI (other) KDDEHFSVDYCGMNCTQQEDGSWTACSGRNEECRCYHESGKKNGLCLSTTYIDFSQYGNPSDSDIAAASPRP . Its measured log10 of Kd is 0.75
